- Test system: OVCAR-8 complex spheroid, growth inhibition
- experiment summary: Anticancer human tumor OVCAR-8 cell line growth inhibition [Asc];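 note: spheroids exposed to agents for 7 days before readout; percent viability relative to DMSO vehicle wells taken as 100%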
- conditions: second compound 0.1 µM; first compound 0.000316 µM; active compounds read low
- Excerpt: Multicellular complex tumor spheroid response to apoptosis pathway targeting inhibitors Alrizomadlin, Pelcitoclax, and Dasminapant in combination with a variety of drugs and investigational agents in selected tumor cell lines […] Compounds. […] If the clinical Cmax for an agent had not been determined, the highest concentration tested was 10 microM. […]

molecule | study system | viability, T/C / %
Cn1ncnc1[C@H]1c2n[nH]c(=O)c3cc(F)cc(c23)N[C@@H]1c1ccc(F)cc1 + CNC(C)C(=O)NC1CN(S(=O)(=O)c2cccc(S(=O)(=O)N3CCC4CCC(C(=O)NC(c5ccccc5)c5ccccc5)N4C(=O)C(NC(=O)C(C)NC)C3)c2)CCC2CCC(C(=O)NC(c3ccccc3)c3ccccc3)N2C1=O | OVCAR-8 complex spheroid, growth inhibition | 106
NC1CCC(NC2CC2c2ccccc2)CC1 (centres undefined) + CNC(C)C(=O)NC1CN(S(=O)(=O)c2cccc(S(=O)(=O)N3CCC4CCC(C(=O)NC(c5ccccc5)c5ccccc5)N4C(=O)C(NC(=O)C(C)NC)C3)c2)CCC2CCC(C(=O)NC(c3ccccc3)c3ccccc3)N2C1=O | OVCAR-8 complex spheroid, growth inhibition | 79.2
Cn1ncnc1[C@H]1c2n[nH]c(=O)c3cc(F)cc(c23)N[C@@H]1c1ccc(F)cc1 + Cc1c(S(C)(=O)=O)c(-c2cc(F)cc(N3CCN(c4ccc(NS(=O)(=O)c5ccc(NC(CCN6CCC(C(=O)OCCCP(=O)(O)O)CC6)CSc6ccccc6)c(S(=O)(=O)C(F)(F)F)c5)cc4)CC3)c2)c(-c2ccc(Cl)cc2)n1C(C)C | OVCAR-8 complex spheroid, growth inhibition | 103
NC1CCC(NC2CC2c2ccccc2)CC1 (centres undefined) + Cc1c(S(C)(=O)=O)c(-c2cc(F)cc(N3CCN(c4ccc(NS(=O)(=O)c5ccc(NC(CCN6CCC(C(=O)OCCCP(=O)(O)O)CC6)CSc6ccccc6)c(S(=O)(=O)C(F)(F)F)c5)cc4)CC3)c2)c(-c2ccc(Cl)cc2)n1C(C)C | OVCAR-8 complex spheroid, growth inhibition | 97.5

###

- System: OVCAR-8 complex spheroid, growth inhibition
- experiment summary: Anticancer human tumor OVCAR-8 cell line growth inhibition [Asc];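 note: spheroids exposed to agents for 7 days before readout; percent viability relative to DMSO vehicle wells taken as 100%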
- conditions: second compound 0.0949 µM; first compound 1 µM; active compounds read low
Reported viability, T/C by item:
readout name: viability, T/C (%)

compound | study system | readout name | quantity unit | measured result
CCN1CCN(Cc2ccc(Nc3ncc(F)c(-c4cc(F)c5nc(C)n(C(C)C)c5c4)n3)nc2)CC1 + CCN1C(C(=O)NC23CCC(C(=O)O)(CC2)CC3)C(c2cccc(Cl)c2F)C2(C(=O)Nc3cc(Cl)ccc32)C12CCCCC2 | OVCAR-8 complex spheroid, growth inhibition | viability, T/C | % | 126
C=CC(=O)N1CCN(c2nc(=O)n(-c3c(C)ccnc3C(C)C)c3nc(-c4c(O)cccc4F)c(F)cc23)C(C)C1 (stereo not drawn) + CCN1C(C(=O)NC23CCC(C(=O)O)(CC2)CC3)C(c2cccc(Cl)c2F)C2(C(=O)Nc3cc(Cl)ccc32)C12CCCCC2 | OVCAR-8 complex spheroid, growth inhibition | viability, T/C | % | 74.2
COc1c(OCCCN2CCOCC2)ccc2c3n(c(=NC(=O)c4cnc(N)nc4)nc12)CCN3 + CCN1C(C(=O)NC23CCC(C(=O)O)(CC2)CC3)C(c2cccc(Cl)c2F)C2(C(=O)Nc3cc(Cl)ccc32)C12CCCCC2 | OVCAR-8 complex spheroid, growth inhibition | viability, T/C | % | 92.4
O=C(c1cc(Cc2n[nH]c(=O)c3ccccc23)ccc1F)N1CCN(C(=O)C2CC2)CC1 + CCN1C(C(=O)NC23CCC(C(=O)O)(CC2)CC3)C(c2cccc(Cl)c2F)C2(C(=O)Nc3cc(Cl)ccc32)C12CCCCC2 | OVCAR-8 complex spheroid, growth inhibition | viability, T/C | % | 87.6
C#Cc1c(F)ccc2cc(O)cc(-c3ncc4c(N5CC6CCC(C5)N6)nc(OCC56CCCN5CC(F)C6)nc4c3F)c12 (stereo not drawn) + CCN1C(C(=O)NC23CCC(C(=O)O)(CC2)CC3)C(c2cccc(Cl)c2F)C2(C(=O)Nc3cc(Cl)ccc32)C12CCCCC2 | OVCAR-8 complex spheroid, growth inhibition | viability, T/C | % | 84
CNC(C)C(=O)NC1CN(S(=O)(=O)c2cccc(S(=O)(=O)N3CCC4CCC(C(=O)NC(c5ccccc5)c5ccccc5)N4C(=O)C(NC(=O)C(C)NC)C3)c2)CCC2CCC(C(=O)NC(c3ccccc3)c3ccccc3)N2C1=O (stereo not drawn) + CCN1C(C(=O)NC23CCC(C(=O)O)(CC2)CC3)C(c2cccc(Cl)c2F)C2(C(=O)Nc3cc(Cl)ccc32)C12CCCCC2 | OVCAR-8 complex spheroid, growth inhibition | viability, T/C | % | 63.6
O=C(c1ccc(F)c(F)c1Nc1ccc(I)cc1F)N1CC(O)([C@@H]2CCCCN2)C1 + CCN1C(C(=O)NC23CCC(C(=O)O)(CC2)CC3)C(c2cccc(Cl)c2F)C2(C(=O)Nc3cc(Cl)ccc32)C12CCCCC2 | OVCAR-8 complex spheroid, growth inhibition | viability, T/C | % | 113
C=C(F)C(=O)N1CCN(c2nc(OCC3CCCN3C)nc3c2CCN(c2cccc4cccc(Cl)c24)C3)CC1CC#N (stereo not drawn) + CCN1C(C(=O)NC23CCC(C(=O)O)(CC2)CC3)C(c2cccc(Cl)c2F)C2(C(=O)Nc3cc(Cl)ccc32)C12CCCCC2 | OVCAR-8 complex spheroid, growth inhibition | viability, T/C | % | 116

###

- Test system: OVCAR-8 complex spheroid, growth inhibition
- experiment summary: Anticancer human tumor OVCAR-8 cell line growth inhibition [Asc];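 note: spheroids exposed to agents for 7 days before readout; percent viability relative to DMSO vehicle wells taken as 100%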
- conditions: second compound 0.949 µM; first compound 0.0316 µM; active compounds read low
Some compounds, each annotated with its measured viability, T/C.
readout name: viability, T/C (%)

compound | measured result
CNC(C)C(=O)NC1CN(S(=O)(=O)c2cccc(S(=O)(=O)N3CCC4CCC(C(=O)NC(c5ccccc5)c5ccccc5)N4C(=O)C(NC(=O)C(C)NC)C3)c2)CCC2CCC(C(=O)NC(c3ccccc3)c3ccccc3)N2C1=O (stereo not drawn) + CCN1C(C(=O)NC23CCC(C(=O)O)(CC2)CC3)C(c2cccc(Cl)c2F)C2(C(=O)Nc3cc(Cl)ccc32)C12CCCCC2 | 99
CCN1CCN(Cc2ccc(Nc3ncc(F)c(-c4cc(F)c5nc(C)n(C(C)C)c5c4)n3)nc2)CC1 + CCN1C(C(=O)NC23CCC(C(=O)O)(CC2)CC3)C(c2cccc(Cl)c2F)C2(C(=O)Nc3cc(Cl)ccc32)C12CCCCC2 | 87.5
O=C(c1ccc(F)c(F)c1Nc1ccc(I)cc1F)N1CC(O)([C@@H]2CCCCN2)C1 + CCN1C(C(=O)NC23CCC(C(=O)O)(CC2)CC3)C(c2cccc(Cl)c2F)C2(C(=O)Nc3cc(Cl)ccc32)C12CCCCC2 | 163
COc1c(OCCCN2CCOCC2)ccc2c3n(c(=NC(=O)c4cnc(N)nc4)nc12)CCN3 + CCN1C(C(=O)NC23CCC(C(=O)O)(CC2)CC3)C(c2cccc(Cl)c2F)C2(C(=O)Nc3cc(Cl)ccc32)C12CCCCC2 | 146
O=C(c1cc(Cc2n[nH]c(=O)c3ccccc23)ccc1F)N1CCN(C(=O)C2CC2)CC1 + CCN1C(C(=O)NC23CCC(C(=O)O)(CC2)CC3)C(c2cccc(Cl)c2F)C2(C(=O)Nc3cc(Cl)ccc32)C12CCCCC2 | 99.6
NC1CCC(NC2CC2c2ccccc2)CC1 (stereo not drawn) + CCN1C(C(=O)NC23CCC(C(=O)O)(CC2)CC3)C(c2cccc(Cl)c2F)C2(C(=O)Nc3cc(Cl)ccc32)C12CCCCC2 | 106
C#Cc1c(F)ccc2cc(O)cc(-c3ncc4c(N5CC6CCC(C5)N6)nc(OCC56CCCN5CC(F)C6)nc4c3F)c12 (stereo not drawn) + CCN1C(C(=O)NC23CCC(C(=O)O)(CC2)CC3)C(c2cccc(Cl)c2F)C2(C(=O)Nc3cc(Cl)ccc32)C12CCCCC2 | 93.5
C=C(F)C(=O)N1CCN(c2nc(OCC3CCCN3C)nc3c2CCN(c2cccc4cccc(Cl)c24)C3)CC1CC#N (stereo not drawn) + CCN1C(C(=O)NC23CCC(C(=O)O)(CC2)CC3)C(c2cccc(Cl)c2F)C2(C(=O)Nc3cc(Cl)ccc32)C12CCCCC2 | 90.3

###

- Test system: OVCAR-8 complex spheroid, growth inhibition
- experiment summary: Anticancer human tumor OVCAR-8 cell line growth inhibition [Asc];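 note: spheroids exposed to agents for 7 days before readout; percent viability relative to DMSO vehicle wells taken as 100%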
- conditions: second compound 0.03 µM; first compound 1 µM; active compounds read low
// reported viability, T/C for each item listed

compound | quantity unit | viability, T/C
O=C(c1ccc(F)c(F)c1Nc1ccc(I)cc1F)N1CC(O)([C@@H]2CCCCN2)C1 + CCN1C(C(=O)NC23CCC(C(=O)O)(CC2)CC3)C(c2cccc(Cl)c2F)C2(C(=O)Nc3cc(Cl)ccc32)C12CCCCC2 | % | 101
CCN1CCN(Cc2ccc(Nc3ncc(F)c(-c4cc(F)c5nc(C)n(C(C)C)c5c4)n3)nc2)CC1 + CCN1C(C(=O)NC23CCC(C(=O)O)(CC2)CC3)C(c2cccc(Cl)c2F)C2(C(=O)Nc3cc(Cl)ccc32)C12CCCCC2 | % | 117
CNC(C)C(=O)NC1CN(S(=O)(=O)c2cccc(S(=O)(=O)N3CCC4CCC(C(=O)NC(c5ccccc5)c5ccccc5)N4C(=O)C(NC(=O)C(C)NC)C3)c2)CCC2CCC(C(=O)NC(c3ccccc3)c3ccccc3)N2C1=O (stereo not drawn) + CCN1C(C(=O)NC23CCC(C(=O)O)(CC2)CC3)C(c2cccc(Cl)c2F)C2(C(=O)Nc3cc(Cl)ccc32)C12CCCCC2 | % | 83.3
C=C(F)C(=O)N1CCN(c2nc(OCC3CCCN3C)nc3c2CCN(c2cccc4cccc(Cl)c24)C3)CC1CC#N (stereo not drawn) + CCN1C(C(=O)NC23CCC(C(=O)O)(CC2)CC3)C(c2cccc(Cl)c2F)C2(C(=O)Nc3cc(Cl)ccc32)C12CCCCC2 | % | 107
C=CC(=O)N1CCN(c2nc(=O)n(-c3c(C)ccnc3C(C)C)c3nc(-c4c(O)cccc4F)c(F)cc23)C(C)C1 (stereo not drawn) + CCN1C(C(=O)NC23CCC(C(=O)O)(CC2)CC3)C(c2cccc(Cl)c2F)C2(C(=O)Nc3cc(Cl)ccc32)C12CCCCC2 | % | 76.8
COc1c(OCCCN2CCOCC2)ccc2c3n(c(=NC(=O)c4cnc(N)nc4)nc12)CCN3 + CCN1C(C(=O)NC23CCC(C(=O)O)(CC2)CC3)C(c2cccc(Cl)c2F)C2(C(=O)Nc3cc(Cl)ccc32)C12CCCCC2 | % | 91.2
O=C(c1cc(Cc2n[nH]c(=O)c3ccccc23)ccc1F)N1CCN(C(=O)C2CC2)CC1 + CCN1C(C(=O)NC23CCC(C(=O)O)(CC2)CC3)C(c2cccc(Cl)c2F)C2(C(=O)Nc3cc(Cl)ccc32)C12CCCCC2 | % | 100
C#Cc1c(F)ccc2cc(O)cc(-c3ncc4c(N5CC6CCC(C5)N6)nc(OCC56CCCN5CC(F)C6)nc4c3F)c12 (stereo not drawn) + CCN1C(C(=O)NC23CCC(C(=O)O)(CC2)CC3)C(c2cccc(Cl)c2F)C2(C(=O)Nc3cc(Cl)ccc32)C12CCCCC2 | % | 97.3

FYI, the data here is from PubChem BioAssay AID1963437.
